Some binders, each annotated with its measured pKd.
Target: T1, c-erbB-2 ECD with a Ser-Gly-His6 C-terminal fusion (UniProt P04626 23-652)
T1 construct: extracellular domain; Expressed from CHO cells, IMAC purified; coupled to a CM5 chip, coated on plates, or biotinylated with NHS-LC-biotin; also called c-erbB-2 extracellular domain; biotinylated c-erbB-2 ECD
Assay: SPR BIAcore
pKd field: float, defined as -log10 of concentration (mol/L).

Here's what some known entries look like.
In one line, give reported pKd of the entry C6-B1D3 (scFv, Combined B1 and D3 mutations on C6ML3-9) scFv: QVQLLQSGAELKKPGESLKISCKGSGYSFTSYWIAWVRQMPGKGLEYMGLIYPGDSDTKYSPSFQGQVTISVDKSVSTAYLQWSSLKPSDSAVYFCARHDVGYCTDRTCAKWPEWLDNWGQGTLVTVSSGGGGSGGGGSGGGGSQSVLTQPPSVSAAPGQKVTISCSGSSSNIGNNYVSWYQQLPGTAPKLLIYGHTNRPAGVPDRFSGSKSGTSASLAISGFRSEDEADYYCASWDYTLSGWVFGGGTKLTVLG .
10.89

In one line, give reported pKd of the entry C6-B1D2 (scFv, Combined B1 and D2 mutations on C6ML3-9) scFv: QVQLLQSGAELKKPGESLKISCKGSGYSFTSYWIAWVRQMPGKGLEYMGLIYPGDSDTKYSPSFQGQVTISVDKSVSTAYLQWSSLKPSDSAVYFCARHDVGYCTDRTCAKWPEWLGVWGQGTLVTVSSGGGGSGGGGSGGGGSQSVLTQPPSVSAAPGQKVTISCSGSSSNIGNNYVSWYQQLPGTAPKLLIYGHTNRPAGVPDRFSGSKSGTSASLAISGFRSEDEADYYCASWDYTLSGWVFGGGTKLTVLG .
10.82

// switching to the query binder
In one line, give reported pKd of the entry C6-B1D5 (scFv, Combined B1 and D5 mutations on C6ML3-9) scFv: QVQLLQSGAELKKPGESLKISCKGSGYSFTSYWIAWVRQMPGKGLEYMGLIYPGDSDTKYSPSFQGQVTISVDKSVSTAYLQWSSLKPSDSAVYFCARHDVGYCTDRTCAKWPEWMQMWGQGTLVTVSSGGGGSGGGGSGGGGSQSVLTQPPSVSAAPGQKVTISCSGSSSNIGNNYVSWYQQLPGTAPKLLIYGHTNRPAGVPDRFSGSKSGTSASLAISGFRSEDEADYYCASWDYTLSGWVFGGGTKLTVLG .
10.46
